Numbers sourced from ChEMBL document CHEMBL4052676.

target: Tyrosine-protein phosphatase non-receptor type 1 (Homo sapiens, UniProt P18031); experiment: Inhibition of human recombinant PTP1B pre-incubated for 10 mins before pnitrophenyl phosphate substrate addition and measured every 30 secs for 10 mins; settings: read-out: IC50
Sequence (P18031 whole entry): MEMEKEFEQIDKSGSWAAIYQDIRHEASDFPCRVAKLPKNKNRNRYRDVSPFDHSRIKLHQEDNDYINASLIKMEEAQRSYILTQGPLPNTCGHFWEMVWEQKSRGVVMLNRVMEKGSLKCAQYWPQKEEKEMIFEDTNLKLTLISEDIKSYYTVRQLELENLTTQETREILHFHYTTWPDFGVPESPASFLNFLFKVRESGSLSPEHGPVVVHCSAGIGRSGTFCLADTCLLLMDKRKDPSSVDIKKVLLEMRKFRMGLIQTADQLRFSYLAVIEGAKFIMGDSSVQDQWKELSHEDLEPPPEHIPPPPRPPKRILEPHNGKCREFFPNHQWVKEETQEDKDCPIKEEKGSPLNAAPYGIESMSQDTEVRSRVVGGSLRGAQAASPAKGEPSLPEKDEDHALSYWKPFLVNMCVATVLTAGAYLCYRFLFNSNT
assay_readout: IC50 (µM)
Numeric only. Scale: µM

Quick one: IC50 of `C=CC(C)(C)c1cc(O)c2oc3c(O)c(O)ccc3c(=O)c2c1O` ?
53

Same question, `C=CC(C)(C)c1cc(O)c(O)c2c(=O)c3cccc(O)c3oc12` this time
73.2

Same question, `O=c1c2cccc(O)c2oc2c(O)ccc(O)c12` this time
148

Same question, `C=CC(C)(C)c1cc(O)c2oc3c(O)c4c(cc3c(=O)c2c1O)C=CC(C)(C)O4` this time
8

Same question, `O=c1c2cc(O)ccc2oc2cccc(O)c12` this time
150

Same question, `C=CC(C)(C)c1cc(O)c(O)c2c(=O)c3cc4c(c(O)c3oc12)OC(C)(C)C=C4` this time
49.4

Same question, `C=CC(C)(C)c1cc(O)c(O)c2c(=O)c3cc4ccoc4c(O)c3oc12` this time
45.2

Same question, `COc1c(O)cc2oc3cc4occc4c(O)c3c(=O)c2c1C/C=C(\C)CCC=C(C)C` this time
55.1

Same question, `C=CC(C)(C)c1cc(O)c(O)c2c(=O)c3ccc(O)c(O)c3oc12` this time
85.5

Same question, `C=CC(C)(C)c1cc(O)c2oc3c(O)c4occc4cc3c(=O)c2c1O` this time
26.8

Same question, `O=c1c2cc(O)ccc2oc2ccc(O)c(O)c12` this time
120

---

assay: Inhibition of Saccharomyces cerevisiae alpha-glucosidase pre-incubated for 10 mins before p-nitrophenyl […]-D-glucopyranoside substrate addition and measured every 30 secs for 35 mins post substrate addition; conditions: read-out: IC50
For each record, write down the corresponding IC50.
Numeric only. Scale: µM

Quick one: IC50 of C[C@H]1O[C@H](O[C@H]2[C@H](O)[C@@H](O)[C@@H](O[C@H]3[C@H](O)[C@@H](O)C(O)O[C@@H]3CO)O[C@@H]2CO)[C@H](O)[C@@H](O)[C@@H]1N[C@H]1C=C(CO)[C@@H](O)[C@H](O)[C@H]1O (stereo partly specified) ?
900

Same question, `C=CC(C)(C)c1cc(O)c2oc3c(O)c(O)ccc3c(=O)c2c1O` this time
4.1

Same question, `O=c1c2cc(O)ccc2oc2ccc(O)c(O)c12` this time
31.4

Same question, `C=CC(C)(C)c1cc(O)c2oc3c(O)c4occc4cc3c(=O)c2c1O` this time
142

Same question, `C=CC(C)(C)c1cc(O)c2oc3c(O)cccc3c(=O)c2c1O` this time
85.5

Same question, `O=c1c2cccc(O)c2oc2c(O)ccc(O)c12` this time
358

Same question, `C=CC(C)(C)c1cc(O)c2oc3c(O)c4c(cc3c(=O)c2c1O)C=CC(C)(C)O4` this time
36.7

Same question, `C=CC(C)(C)c1cc(O)c(O)c2c(=O)c3cccc(O)c3oc12` this time
29.8

Same question, `COc1c(O)cc2oc3cc4occc4c(O)c3c(=O)c2c1C/C=C(\C)CCC=C(C)C` this time
94.2

Same question, `C=CC(C)(C)c1cc(O)c(O)c2c(=O)c3ccc(O)c(O)c3oc12` this time
27.5

Same question, `C=CC(C)(C)c1cc(O)c(O)c2c(=O)c3cc4ccoc4c(O)c3oc12` this time
134
